Below, log10 Ki values reported for Alpha-1A adrenergic receptor (Rattus norvegicus) across several publications.
Values below are the log10 of the recorded Ki, with nM as the unit.

[
  {
    "Compound": "COc1cc2c(cc1OC)NCN(CCN1C[C@@H]3CCc4c(OC)cccc4[C@@H]3C1)C2",
    "log10 Ki": 1.79
  },
  {
    "Compound": "COc1cccc2c1CC[C@H]1CN(CCn3c(=O)[nH]c4cnccc4c3=O)C[C@@H]21",
    "log10 Ki": 0.15
  },
  {
    "Compound": "COc1cccc2c1CC[C@H]1CN(CCn3c(=O)[nH]c4ccncc4c3=O)C[C@@H]21",
    "log10 Ki": 0.83
  },
  {
    "Compound": "O=C(NC1CCc2ccc(CCN3CCN(c4nsc5ccccc45)CC3)cc21)c1ccc(Cl)cc1 (centres undefined)",
    "log10 Ki": 0.75
  },
  {
    "Compound": "O=C1C2CCCCN2C(=O)N1CCCCN1CCN(c2cccc(Cl)c2)CC1 (centres undefined)",
    "log10 Ki": 1.08
  },
  {
    "Compound": "COc1cc2c(=O)n(CCN3C[C@@H]4CCc5c(OC)cccc5[C@@H]4C3)c(=O)n(C)c2cc1OC",
    "log10 Ki": -0.60
  }
]

Please provide the recorded log10 Ki for COc1cc2nc(N3CCN(C(=O)OCc4ccccc4)[C@H](C(=O)NC(C)(C)C)C3)nc(N)c2cc1OC , tested on Alpha-1A adrenergic receptor (Rattus norvegicus).
Sequence (P43140 whole entry): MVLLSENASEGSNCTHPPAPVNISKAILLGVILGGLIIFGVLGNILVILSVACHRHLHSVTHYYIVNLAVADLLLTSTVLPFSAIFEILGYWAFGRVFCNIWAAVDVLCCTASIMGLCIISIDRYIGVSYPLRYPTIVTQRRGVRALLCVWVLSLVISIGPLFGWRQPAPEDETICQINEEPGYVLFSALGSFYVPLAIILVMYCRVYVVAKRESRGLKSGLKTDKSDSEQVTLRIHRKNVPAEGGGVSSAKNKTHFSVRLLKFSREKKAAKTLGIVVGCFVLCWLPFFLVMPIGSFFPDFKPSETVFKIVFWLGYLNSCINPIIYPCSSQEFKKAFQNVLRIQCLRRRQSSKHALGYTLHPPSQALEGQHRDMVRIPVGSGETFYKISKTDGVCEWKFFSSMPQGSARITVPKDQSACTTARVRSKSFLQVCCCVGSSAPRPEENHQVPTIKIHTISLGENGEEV
2.70

Please provide the recorded log10 Ki for O=C(NC1CCc2ccc(CCN3CCN(c4nsc5ccccc45)CC3)cc21)C(F)(F)F (centres undefined) , tested on Alpha-1A adrenergic receptor (Rattus norvegicus).
0.28

Please provide the recorded log10 Ki for COc1cccc2c1CC[C@H]1CN(CCn3c(=O)[nH]c4cc(C#N)ccc4c3=O)C[C@@H]21 , tested on Alpha-1A adrenergic receptor (Rattus norvegicus).
-1.05
